Measured values drawn from patent US9115169B2 for this set.

# System: Escherichia coli ATCC 25922
# runConditions: ATCC 25922
Where a SMILES comes first, the peptide text is derived from it.
quantityName: MBC E. coli

Query block: Return the recorded MBC E. coli value; entry: N=C(N)NCCC[C@H](NC(=O)[C@H](CCCNC(=N)N)NC(=O)[C@@H](N)Cc1c[nH]c2ccccc12)C(=O)N[C@@H](Cc1c[nH]c2ccccc12)C(N)=O [WRRW] (H-WRRW-NH2; N-terminus assumed)
Result block: >100 µg/mL

Query block: Return the recorded MBC E. coli value; entry: N=C(N)NCCC[C@H](NC(=O)[C@H](Cc1c[nH]c2ccccc12)NC(=O)[C@H](Cc1c[nH]c2ccccc12)NC(=O)[C@@H](N)CCCNC(=N)N)C(N)=O [RWWR] (H-RWWR-NH2; N-terminus assumed)
Result block: >100 µg/mL

Query block: Return the recorded MBC E. coli value; entry: COC(=O)[C@H](CCCNC(=N)N)NC(=O)[C@H](Cc1c[nH]c2ccccc12)NC(=O)[C@@H](N)Cc1c[nH]c2ccccc12 [WWR-OMe, H-L-Trp-L-Trp-L-Arg-OMe] (H-Trp-Trp-Arg-OMe)
Result block: >200 (>200) μg/ml

Query block: Return the recorded MBC E. coli value; entry: COC(=O)[C@H](CCCNC(=N)N)NC(=O)[C@H](Cc1c[nH]c2ccccc12)NC(=O)[C@@H](N)CCCNC(=N)N [RWR-OMe, H-L-Arg-L-Trp-L-Arg-OMe] (H-Arg-Trp-Arg-OMe)
Result block: >200 (>200) μg/ml

Query block: Return the recorded MBC E. coli value; entry: N=C(N)NCCC[C@H](NC(=O)Cc1c[nH]c2ccccc12)C(=O)N[C@@H](Cc1c[nH]c2ccccc12)C(=O)OCc1ccccc1 [Ind RW OBz, Ind-Arg-Trp-OBzl]
Result block: >200 (>200) μg/ml

====

# Test system: Escherichia coli ATCC 25922
# runConditions: ATCC 25922
Where a SMILES comes first, the peptide text is derived from it. [ ]: non-standard residue; d: D form. Bip = N[C@@H](Cc1ccc(-c2ccccc2)cc1)C(=O)O
quantityName: MIC E. coli

Query block: Return the recorded MIC E. coli value; entry: N=C(N)NCCC[C@H](NC(=O)C1CCCCC1)C(=O)N[C@@H](Cc1c[nH]c2ccccc12)C(=O)OCc1ccccc1
Result block: 200 (>200) μg/ml

Query block: Return the recorded MIC E. coli value; entry: C[C@H](N)C(=O)N[C@@H](C)C(=O)N[C@@H](Cc1c[nH]c2ccccc12)C(=O)N[C@@H](CCCNC(=N)N)C(=O)N[C@@H](Cc1ccc(-c2ccccc2)cc1)C(=O)N[C@@H](CCCNC(=N)N)C(N)=O [AAWRBR-NH2] (H-AAWR[Bip]R-NH2; N-terminus assumed)
Result block: 150 to 300 µg/mL

Query block: Return the recorded MIC E. coli value; entry: N=C(N)NCCC[C@H](NC(=O)[C@H](CCCNC(=N)N)NC(=O)[C@H](Cc1ccc(-c2ccccc2)cc1)NC(=O)[C@@H](N)Cc1c[nH]c2ccccc12)C(N)=O [WBRR-NH2] (H-W[Bip]RR-NH2; N-terminus assumed)
Result block: >100 µg/mL

====

# System: Escherichia coli ATCC 25922
# runConditions: ATCC 25922
*1 amine or outer side, *2 acyl side, *3 side chain or, on linkers, in order; H or OH if unused. Where a SMILES comes first, the peptide text is derived from it. [ ]: non-standard residue; d: D form. The star is where a group is joined. Bip = N[C@@H](Cc1ccc(-c2ccccc2)cc1)C(=O)O; Ethylenediamine = C(CN[*:2])N[*:1]; tBuAla = CC(C)(C)C[C@H](N)C(=O)O; Cbz = O=C(OCc1ccccc1)*; OBn = c1ccc(CO*)cc1
quantityName: MIC E. coli

Query block: Return the recorded MIC E. coli value; entry: N=C(N)NCCC[C@H](N)C(=O)N[C@@H](Cc1c[nH]c2ccccc12)C(=O)NCCNC(=O)OCc1ccccc1 [RW DaeZ, H-Arg-Trp-Dae-Z] (H-Arg-Trp-{Ethylenediamine-Cbz})
Result block: >200 (>200) μg/ml

Query block: Return the recorded MIC E. coli value; entry: C[C@H](NC(=O)[C@H](C)NC(=O)[C@H](Cc1ccc(-c2ccccc2)cc1)NC(=O)[C@@H](N)Cc1c[nH]c2ccccc12)C(=O)N[C@@H](CCCNC(=N)N)C(=O)N[C@@H](CCCNC(=N)N)C(N)=O [WBAARR-NH2] (H-W[Bip]AARR-NH2; N-terminus assumed)
Result block: >300 µg/mL

Query block: Return the recorded MIC E. coli value; entry: N=C(N)NCCC[C@H](NC(=O)[C@H](Cc1c[nH]c2ccccc12)NC(=O)[C@H](Cc1c[nH]c2ccccc12)NC(=O)[C@@H](N)CCCNC(=N)N)C(N)=O [RWWR] (H-RWWR-NH2; N-terminus assumed)
Result block: >100 µg/mL

Query block: Return the recorded MIC E. coli value; entry: C[C@H](NC(=O)[C@H](C)NC(=O)[C@H](CCCNC(=N)N)NC(=O)[C@@H](N)CCCNC(=N)N)C(=O)N[C@@H](Cc1c[nH]c2ccccc12)C(=O)N[C@@H](Cc1c[nH]c2ccccc12)C(N)=O [RRAAWW-NH2] (H-RRAAWW-NH2; N-terminus assumed)
Result block: >200 µg/mL

Query block: Return the recorded MIC E. coli value; entry: C[C@H](NC(=O)[C@H](C)NC(=O)[C@H](CCCNC(=N)N)NC(=O)[C@@H](N)CCCNC(=N)N)C(=O)N[C@@H](Cc1c[nH]c2ccccc12)C(=O)N[C@@H](Cc1ccc(-c2ccccc2)cc1)C(N)=O [RRAAWB-NH2] (H-RRAAW[Bip]-NH2; N-terminus assumed)
Result block: 150 to 300 µg/mL

Query block: Return the recorded MIC E. coli value; entry: COC(=O)[C@H](CCCNC(=N)N)NC(=O)[C@@H](N)Cc1ccc(-c2ccccc2)cc1 [BipR-OMe] (H-[Bip]-Arg-OMe; N-terminus assumed)
Result block: >300.0 µg/mL

Query block: Return the recorded MIC E. coli value; entry: CC(C)(C)C[C@H](N)C(=O)N[C@@H](CCCNC(=N)N)C(=O)OCc1ccccc1 [tBuAR-OBzl] (H-[tBuAla]-Arg-OBn; N-terminus assumed)
Result block: >300.0 µg/mL

Query block: Return the recorded MIC E. coli value; entry: C[C@H](NC(=O)[C@H](C)NC(=O)[C@H](Cc1c[nH]c2ccccc12)NC(=O)[C@@H](N)Cc1c[nH]c2ccccc12)C(=O)N[C@@H](CCCNC(=N)N)C(=O)N[C@@H](CCCNC(=N)N)C(N)=O [WWAARR-NH2] (H-WWAARR-NH2; N-terminus assumed)
Result block: >200 µg/mL
